Target sequence: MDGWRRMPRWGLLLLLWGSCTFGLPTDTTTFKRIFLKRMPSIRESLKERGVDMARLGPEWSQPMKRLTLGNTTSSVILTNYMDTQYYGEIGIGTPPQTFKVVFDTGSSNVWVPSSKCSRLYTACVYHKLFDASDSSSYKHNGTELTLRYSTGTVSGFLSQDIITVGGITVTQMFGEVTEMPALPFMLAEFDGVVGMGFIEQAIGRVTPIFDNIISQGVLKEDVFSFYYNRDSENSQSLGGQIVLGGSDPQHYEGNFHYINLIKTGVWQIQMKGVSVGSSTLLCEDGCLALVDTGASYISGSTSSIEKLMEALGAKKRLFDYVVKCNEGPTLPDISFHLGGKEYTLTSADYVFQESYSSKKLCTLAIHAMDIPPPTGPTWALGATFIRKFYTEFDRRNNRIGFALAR
pIC50: −log10 of the molar value.
Below, each entry is listed with its recorded pIC50.
readoutLabel: pIC50

mol: C=C(C[C@H](O)[C@H](CC1CCCCC1)NC(=O)[C@H](Cc1c[nH]cn1)NC(=O)[C@H](CO)NC(=O)OC(C)(C)C)C(=O)NCCC(C)C
result: 5.70
//
mol: C=C(C[C@H](O)[C@H](CC1CCCCC1)NC(=O)[C@H](C)NC(=O)[C@H](Cc1ccccc1)NC(=O)OC(C)(C)C)C(=O)NC
result: 7.30
//
mol: CC(C)CNC(=O)[C@](O)(CCl)C[C@H](O)[C@H](CC1CCCCC1)NC(=O)[C@H](Cc1cnc[nH]1)NC(=O)[C@H](Cc1ccccc1)NC(=O)OC(C)(C)C
result: 9.10
//
mol: CC(C)CNC(=O)[C@](O)(CN=[N+]=[N-])C[C@H](O)[C@H](CC1CCCCC1)NC(=O)[C@H](Cc1cnc[nH]1)NC(=O)[C@H](Cc1ccccc1)NC(=O)OC(C)(C)C
result: 9.00
//
mol: C=C(C[C@H](O)[C@H](CC1CCCCC1)NC(=O)[C@H](Cc1c[nH]cn1)NC(=O)[C@H](Cc1ccccc1)NC(=O)OC(C)(C)C)C(=O)NCC(C)C
result: 8.70
//
mol: CC(C)CCNC(=O)[C@](C)(O)C[C@H](O)[C@H](CC1CCCCC1)NC(=O)[C@H](Cc1c[nH]cn1)NC(=O)[C@H](Cc1ccccc1)NC(=O)OC(C)(C)C
result: 7.30

Where do the numbers come from? From ChEMBL document CHEMBL1123892.
